- assay_summary: Quantitative High-Throughput drug screen in 47 multiple myeloma cell lines against the NCATS MIPE library collection: AMO1_DSMZ cell viability assay (AID 1918927; further: nearly all actives have a fitted effect of over 30% in size; further: potency means the concentration at half of the fitted maximal effect)
- condition_notes: AMO1 myeloma cells viability, CellTiter-Glo ATP luminescence, 48 h; series mostly up to 45.8 µM
Records with an inconclusive call do not appear. The source made the active and inactive calls. The call rests on the fitted dose curve; in most records, active means well fitted cell-killing curve with a large enough effect; inconclusive means small, poorly fitted or top-dose-only effect, or effect the other way; inactive means no such curve, though single readings can be large or run the other way.
metric: Potency

C[C@H](c1ccc(F)cc1CCCC(=O)O)N(c1cc(F)ccc1F)S(=O)(=O)c1ccc(Cl)cc1    inactive
CCCCN(CCCC)CC(O)c1cc(Cl)cc2c1-c1ccc(Cl)cc1C2=Cc1ccc(Cl)cc1 (stereo not given)    inactive
OC(c1cc(C(F)(F)F)nc2c(C(F)(F)F)cccc12)C1CCCCN1 (stereo not given)    18.7 µM (active)
CCOC(=O)[C@H]1O[C@H]1C(=O)N[C@@H](CC(C)C)C(=O)NCCC(C)C    inactive
O=C(CO)N1CCC(c2[nH]nc(-c3ccc(Cl)cc3)c2-c2ccncn2)CC1    inactive

# input I have this molecule here, OC[C@H]1O[C@@H](O[C@H]2[C@@H](O)[C@@](O)(CO)O[C@@H]2CO)[C@H](O)[C@@H](O)[C@@H]1O , and I need its recorded Potency.
# output inactive

# input Can you check CC1(C)OC2CC3C4CC(F)C5=CC(=O)C=CC5(C)C4C(O)CC3(C)[C@]2(C(=O)CO)O1 (stereo not given in full) next?
# output inactive

# input Can you check CC[C@H](C)n1cc(C)c2c(C(=O)NCc3c(C)cc(C)[nH]c3=O)cc(-c3ccc(N4CCNCC4)nc3)cc21 next?
# output inactive

# input Can you check CC(C)(F)C[C@H](N[C@@H](c1ccc(-c2ccc(S(C)(=O)=O)cc2)cc1)C(F)(F)F)C(=O)NC1(C#N)CC1 next?
# output inactive

# input Can you check CC(NCCc1ccc(O)cc1)C(O)c1ccc(O)cc1 (stereo not given) next?
# output inactive

# input Can you check NC(=O)c1noc([C@H](CCCC2CCCCC2)CC(=O)NO)n1 next?
# output 4.18 µM (active)

# input Can you check CC(C)Oc1cc(Nc2nc(N[C@@H](C)c3ccc(F)cn3)ncc2Cl)[nH]n1 next?
# output 18.7 µM (active)

# input Can you check CC(C)(CO)[C@@H](O)C(=O)NCCC(=O)O next?
# output inactive

# input Can you check CCc1cccc(CC)c1NC(=O)N1Cc2[nH]nc(NC(=O)c3ccc(N4CCN(C)CC4)cc3)c2C1 next?
# output 7.43 µM (active)

# input Can you check N=C1SC(=Cc2ccc(-c3ccc4c(c3)C(=O)NC4=O)o2)C(=O)N1c1ccc(Br)cc1 next?
# output inactive

---

- assay_summary: Primary fluorescence-based thiol-reactive (MSTI) qHTS assay for identification of artifact compounds. (AID 1845221); further: nearly all actives have a fitted effect of over 65% in size
- condition_notes: MSTI thiol-reactivity probe, 1 h; series mostly up to 53.8 µM
Inconclusive results are not listed. Calls of active or inactive are those of the source. The call rests on the fitted dose curve; in most records, active means well fitted inhibition curve with a large enough effect; inconclusive means small, poorly fitted or top-dose-only effect; inactive means no such curve, though single readings can be large or run the other way.
Response enum: active, inactive

O=C(CO)N1CCC(c2[nH]nc(-c3ccc(Cl)cc3)c2-c2ccncn2)CC1    inactive
Cc1ccccc1-n1c(Cn2nc(-c3cccc(O)c3)c3c(N)ncnc32)nc2cccc(C)c2c1=O    inactive
COc1nccc(-c2c(-c3ccc(F)cc3)ncn2C2CCNCC2)n1    inactive
COc1cc2ncnc(Nc3cc(Br)c(O)c(Br)c3)c2cc1OC    active
NC1(C(=O)N[C@@H](CCO)c2ccc(Cl)cc2)CCN(c2ncnc3[nH]ccc23)CC1    inactive
CCN1C[C@H](C)n2c(c(O)c3c(=O)n(Cc4ccc(F)c(Cl)c4)nc(C(=O)NC)c32)C1=O    active

# input # fetch the recorded call for C[C@H](c1ccc(F)cc1CCCC(=O)O)N(c1cc(F)ccc1F)S(=O)(=O)c1ccc(Cl)cc1 here
# output inactive
